- assayed-target: T1, crab-eating macaque CDCP1 with N-terminal c-Myc tag (expression vector GS02), on crab-eating macaque … (crab-eating macaque (Macaca …, UniProt Q9H5V8 30-836 (human entry)))
- T1 chain: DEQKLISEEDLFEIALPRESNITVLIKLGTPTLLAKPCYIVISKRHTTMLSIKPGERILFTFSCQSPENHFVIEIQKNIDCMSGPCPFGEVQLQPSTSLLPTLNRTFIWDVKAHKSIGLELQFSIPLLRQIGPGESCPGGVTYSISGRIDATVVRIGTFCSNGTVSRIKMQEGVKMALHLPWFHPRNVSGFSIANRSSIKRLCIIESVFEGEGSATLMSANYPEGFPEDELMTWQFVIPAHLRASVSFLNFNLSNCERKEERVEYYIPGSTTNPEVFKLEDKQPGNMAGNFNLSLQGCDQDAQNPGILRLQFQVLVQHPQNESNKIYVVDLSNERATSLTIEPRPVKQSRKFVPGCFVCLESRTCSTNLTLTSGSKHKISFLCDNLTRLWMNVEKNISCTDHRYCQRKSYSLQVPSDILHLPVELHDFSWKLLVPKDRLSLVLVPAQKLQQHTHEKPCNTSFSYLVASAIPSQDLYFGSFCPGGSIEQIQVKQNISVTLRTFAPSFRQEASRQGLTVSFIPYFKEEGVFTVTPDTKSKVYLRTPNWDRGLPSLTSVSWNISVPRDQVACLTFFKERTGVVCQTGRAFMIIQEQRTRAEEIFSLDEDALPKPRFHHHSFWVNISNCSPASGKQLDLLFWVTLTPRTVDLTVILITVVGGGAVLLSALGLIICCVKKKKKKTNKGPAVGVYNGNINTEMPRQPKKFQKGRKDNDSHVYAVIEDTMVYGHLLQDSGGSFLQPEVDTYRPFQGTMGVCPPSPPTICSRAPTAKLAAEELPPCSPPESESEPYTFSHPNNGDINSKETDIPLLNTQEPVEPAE
- method-summary: flow cytometry on crab-eating macaque CDCP1-expressing CHO-K1 cells
measure-name: binding result

{"columns": ["binder", "measure-name", "measurement"],
 "data": [
  ["mh14A043HCori/LCori (antibody, human IgG1, kappa, V domains shown, mouse-human chimeric antibody, human IgG1/kappa constant regions; also called mh14A043HCori/LCori-biotin (biotinylated form)) VH: EVQLQESGAELVRPGALVKLSCKASGFNIKDYYMNWVKQRPEQGLEWIGWIDPENGNTIYDPKFQGKASITADTSSNTAYLQLSSLTSEDTAVYYCYGSSYRFTYWGQGTLVTVSS VL: QIVLIQSPALMSASPGEKVTMTCSASSSVSYMYWYQQKPRSSPKPWIYLTSNLASGVPARFSGSGSGTSYSLTISSMEAEDAATYYCQQWSSNPFTFGSGTKLEIKR", "binding result", "binds"]
]}

Reference source: patent US20230050380A1
